- test details: Phase I trial N07DOW: docetaxel plasma exposure after oral docetaxel with ritonavir
- Type: in vivo
- condition description: human, oral, 15 patients with SAEs and DLTs (≥grade 3), mean±SD, read-out: docetaxel AUC0-48 h
measurement name: AUC(0-t) (ng·h/mL)

INSERT INTO assay_data (compound, measurement_name, unit_of_measure, quantitative_result) VALUES
  ('CC(=O)O[C@@]12CO[C@@H]1C[C@H](O)[C@@]1(C)C(=O)[C@H](O)C3=C(C)[C@@H](OC(=O)[C@H](O)[C@@H](NC(=O)OC(C)(C)C)c4ccccc4)C[C@@](O)([C@@H](OC(=O)c4ccccc4)[C@H]21)C3(C)C [docetaxel]', 'AUC(0-t)', 'ng·h/mL', 2340);
